Every entry's value here was drawn from the supplement of paper PMC10567573.

B1: VPS39 (parent)
chain: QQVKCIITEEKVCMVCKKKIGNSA

Variants of: B1
ASSAY_METHOD_TEXT: protein stability index of a GFP-peptide fusion (GPS, HEK-293T) (PSI 1-6); higher = more stable;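 note: lentivirally expressed fusions sorted by FACS into six bins by GFP to DsRed ratio, PSI derived from sequencing read proportions per bin multiplied by bin number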
CONDITION_INFO: c terminus: a fixed tail appended
MEASURED_PARAMETER: protein stability index
Answers are plain numbers.

Study these solved cases before continuing.
>  <VARIANT_ID>
K18F

>  <protein stability index>
1.98

$$$$
>  <VARIANT_ID>
K4S

>  <protein stability index>
2.22

$$$$
>  <VARIANT_ID>
I20R

>  <protein stability index>
3.26

$$$$

Each variant below has a reported value. Please supply its protein stability index.
1. C5P
2. N22V
3. K17G

Marked response:
1: 3.32; 2: 2.11; 3: 3.58
